# Test system: Fibroblast
# methodNotes: Multiplex assay against human fibroblast
# Format: toxicity, cell-based
# measurementParameters: 12 h, 10 µM, compound concentration 10 uM, replicate 2
# label = T if Population Membrane Permeable-Phenotype (%) >= 50% else F

Consider the worked cases shown below.
CN1CCN(C(=O)C(C)(C)c2ccc(C(=O)Nc3cn4cc(-c5cc(C(C)(C)C)cc(C(C)(C)C)c5)ccc4n3)cc2)CC1 : F
CCn1cc(-c2ccnc3[nH]c(-c4cccc(CN(C)C)c4)cc23)c(-c2ccc(NC(=O)N(C)C)cc2)n1 : F
CNc1cc(Oc2cc(C(=O)Nc3cc(N4CCN(C)CC4)cc(C(F)(F)F)c3)ccc2C)ncn1 : T
COc1cc2ncnc(Nc3ccc(F)c(Cl)c3)c2cc1NC(=O)/C=C/CN1CCCCC1 [DACOMITINIB ANHYDROUS] : F
Cl.Oc1ccc2c3c1O[C@H]1c4[nH]c5c(c4C[C@@]4(O)[C@@H](C2)N(CC2CC2)CC[C@]314)C[C@@]1(O)[C@H]2Cc3ccc(O)c4c3[C@@]1(CCN2CC1CC1)[C@H]5O4 : T

Input line: Is Population Membrane Permeable-Phenotype (%) at least 50%? Consider CCOC(=O)c1c(C)[nH]c2ccc3c(c12)CN1CCc2cc(OC)ccc2C1O3 (configuration not stated)
Output line: T

Input line: Next compound up: C=C1/C(=C\C=C2/CCC[C@]3(C)[C@@H]([C@H](C)/C=C/[C@H](C)C(C)C)CC[C@@H]23)C[C@@H](O)C[C@@H]1O
Output line: F

---

# Tested on: Fibroblast
# methodNotes: Multiplex assay against human fibroblast
# Type: toxicity, cell-based
# measurementParameters: 12 h, 1 µM, compound concentration 1 uM, replicate 2
# label = rule met if Total Cell Count >= 80 else rule not met

CCNc1cc(N[C@H]2CC[C@H](O)CC2)nc(Nc2ccc3c(ccn3Cc3ccccc3)c2)n1 : rule met
C=CCn1c(=O)c2cnc(Nc3ccc(N4CCN(C)CC4)cc3)nc2n1-c1cccc(C(C)(C)O)n1 : rule met
COC(=N)c1nc2ccc3ncnc(Nc4ccc(OC)cc4F)c3c2s1 : rule not met

Could you now look at the following compound, please?
Input line: Is Total Cell Count at least 80? Consider O=C1N/C(=N/c2ccccc2F)S/C1=C\c1ccc(C(=O)O)cc1
Output line: rule not met

---

# Test system: Fibroblast
# methodNotes: Multiplex assay against human fibroblast
# Assay type: toxicity, cell-based
# measurementParameters: 24 h, 1 µM, compound concentration 1 uM, replicate 2
readoutType: Population Fragmented Nuclei (%)
Use % as the unit, but write only the number.

Worked cases, answers included:
Cn1nc(C(F)(F)F)cc1-c1cnc(N2CCc3cc(S(=O)(=O)Nc4c(F)cc(Cl)cc4F)cc(N4CCCC4=O)c32)nc1 [TP-020] : 57
O=C(Nc1ccc(-c2ccnc(Nc3ccc(N4CCOCC4)cc3)n2)cc1)[C@@H]1CCCN1 : 7
CN[C@@H]1C[C@H]2O[C@@](C)([C@@H]1OC)n1c3ccccc3c3c4c(c5c6ccccc6n2c5c31)C(=O)NC4 [STAUROSPORINE] : 58
O=C(Nc1ccc(-n2nc(-c3cccnc3)cc2C(F)(F)F)cn1)c1ccc(-c2ccccc2)c(F)c1 [BI 2049] : 7
O=C(Nc1cccnn1)N1CCC(=Cc2cccc(Oc3ccc(C(F)(F)F)cn3)c2)CC1 : 60

Input line: Fill in the blank: the reported Population Fragmented Nuclei (%) of CCN1CCN(c2ccc(Nc3cc(N(C)C(=O)Nc4c(Cl)c(OC)cc(OC)c4Cl)ncn3)cc2)CC1 [INFIGRATINIB] is ____.
Output line: 60

Input line: Next molecule up: CNC(=O)c1ccc(Nc2nc(OC3CCCC3)c3c(-c4ccc5nc(C)oc5c4)c[nH]c3n2)c(OC)c1
Output line: 62

Input line: Next molecule up: NC(=O)c1cccc(-c2cc(Nc3ccc(OC(F)(F)F)cc3)ncn2)c1
Output line: 46
